- System: Streptococcus sp.
- MEASUREMENT PROTOCOL: in vitro antibacterial evaluation, MIC by broth dilution
- Assay type: cell-based
- EXPERIMENTAL SETUP: Streptococcus pneumoniae (ATCC 6301); broth dilution, 18 hours at 35° C.
Below: a set of entries, each annotated with reported MIC Streptococcus pneumoniae (ATCC 6301).
Please respond with the number in µg/mL and leave the unit unwritten.

Reference set, count: 2
CCOc1cc(C2OCC3OC(OC4C(CO)OC(Oc5ccc(CC6NC(=O)C(C(C)c7ccccc7)NC(=O)CNC(=O)C(CO)NC(=O)C(C(O)C7CNC(=N)N7C7OC(CO)C(O)C(O)C7O)NC(=O)C(C(O)C7CNC(=N)N7)NC6=O)cc5)C(O)C4O)C(O)C(O)C3O2)ccc1OC (stereo not shown) [Example 152]; 2
COc1cc(OC)cc(C2OCC3OC(OC4C(CO)OC(Oc5ccc(CC6NC(=O)C(C(C)c7ccccc7)NC(=O)CNC(=O)C(CO)NC(=O)C(C(O)C7CNC(=N)N7C7OC(CO)C(O)C(O)C7O)NC(=O)C(C(O)C7CNC(=N)N7)NC6=O)cc5)C(O)C4O)C(O)C(O)C3O2)c1 (stereo not shown) [Example 150]; 0.25

Now for a further compound.
Tell me measured MIC Streptococcus pneumoniae (ATCC 6301) for CC(c1ccccc1)C1NC(=O)CNC(=O)C(CO)NC(=O)C(C(O)C2CNC(=N)N2C2OC(CO)C(O)C(O)C2O)NC(=O)C(C(O)C2CNC(=N)N2)NC(=O)C(Cc2ccc(OC3OC(CO)C(OC4OC(CO)C(O)C5OC(CC67CC8CC(CC(C8)C6)C7)OC45)C(O)C3O)cc2)NC1=O (stereo not shown) [Example 128] please.
0.25

Values compiled from patent US6914045B2.
